System: HeLa Kyoto
Assay: thermal stability score vs G1/S (z-score of summed log2 fold changes over temperatures); higher = more thermally stable than in G1/S
Settings: cell cycle stage: early G1 (4.5 h after nocodazole release)
Exercise: state measured thermal stability score for each of the sequences provided.
Give bare numbers.

Below, 2 sequences whose answers are already recorded.
item_sequence="MRDRTHELRQGDDSSDEEDKERVALVVHPGTARLGSPDEEFFHKVRTIRQTIVKLGNKVQELEKQQVTILATPLPEESMKQELQNLRDEIKQLGREIRLQLKAIEPQKEEADENYNSVNTRMRKTQHGVLSQQFVELINKCNSMQSEYREKNVERIRRQLKITNAGMVSDEELEQMLDSGQSEVFVSNILKDTQVTRQALNEISARHSEIQQLERSIRELHDIFTFLATEVEMQGEMINRIEKNILSSADYVERGQEHVKTALENQKKARKKKVLIAICVSITVVLLAVIIGVTVVG [STX4]" subject_of_test="HeLa Kyoto" quantity_name="thermal stability score" quantitative_result=0.652
item_sequence="MLSLDFLDDVRRMNKRQLYYQVLNFGMIVSSALMIWKGLMVITGSESPIVVVLSGSMEPAFHRGDLLFLTNRVEDPIRVGEIVVFRIEGREIPIVHRVLKIHEKQNGHIKFLTKGDNNAVDDRGLYKQGQHWLEKKDVVGRARGFVPYIGIVTILMNDYPKFKYAVLFLLGLFVLVHRE [SEC11A]" subject_of_test="HeLa Kyoto" quantity_name="thermal stability score" quantitative_result=9.24

Look up thermal stability score for the entries below, preserving their order.
1. MAESDWDTVTVLRKKGPTAAQAKSKQAILAAQRRGEDVETSKKWAAGQNKQHSITKNTAKLDRETEELHHDRVTLEVGKVIQQGRQSKGLTQKDLATKINEKPQVIADYESGRAIPNNQVLGKIERAIGLKLRGKDIGKPIEKGPRAK [EDF1]
2. MDLWPGAWMLLLLLFLLLLFLLPTLWFCSPSAKYFFKMAFYNGWILFLAVLAIPVCAVRGRNVENMKILRLMLLHIKYLYGIRVEVRGAHHFPPSQPYVVVSNHQSSLDLLGMMEVLPGRCVPIAKRELLWAGSAGLACWLAGVIFIDRKRTGDAISVMSEVAQTLLTQDVRVWVFPEGTRNHNGSMLPFKRGAFHLAVQAQVPIVPIVMSSYQDFYCKKERRFTSGQCQVRVLPPVPTEGLTPDDVPALADRVRHSMLTVFREISTDGRGGGDYLKKPGGGG [AGPAT1]
3. MAFVTRQFMRSVSSSSTASASAKKIIVKHVTVIGGGLMGAGIAQVAAATGHTVVLVDQTEDILAKSKKGIEESLRKVAKKKFAENLKAGDEFVEKTLSTIATSTDAASVVHSTDLVVEAIVENLKVKNELFKRLDKFAAEHTIFASNTSSLQITSIANATTRQDRFAGLHFFNPVPVMKLVEVIKTPMTSQKTFESLVDFSKALGKHPVSCKDTPGFIVNRLLVPYLMEAIRLYERGDASKEDIDTAMKLGAGYPMGPFELLDYVGLDTTKFIVDGWHEMDAENPLHQPSPSLNKLVAENKFGKKTGEGFYKYK [HADH]
4. MLKPALEPRGGFSFENCQRNASLERVLPGLKVPHARKTGTTIAGLVFQDGVILGADTRATNDSVVADKSCEKIHFIAPKIYCCGAGVAADAEMTTRMVASKMELHALSTGREPRVATVTRILRQTLFRYQGHVGASLIVGGVDLTGPQLYGVHPHGSYSRLPFTALGSGQDAALAVLEDRFQPNMTLEAAQGLLVEAVTAGILGDLGSGGNVDACVITKTGAKLLRTLSSPTEPVKRSGRYHFVPGTTAVLTQTVKPLTLELVEETVQAMEVE [PSMB10]
5. MAEAVLRVARRQLSQRGGSGAPILLRQMFEPVSCTFTYLLGDRESREAVLIDPVLETAPRDAQLIKELGLRLLYAVNTHCHADHITGSGLLRSLLPGCQSVISRLSGAQADLHIEDGDSIRFGRFALETRASPGHTPGCVTFVLNDHSMAFTGDALLIRGCGRTDFQQGCAKTLYHSVHEKIFTLPGDCLIYPAHDYHGFTVSTVEEERTLNPRLTLSCEEFVKIMGNLNLPKPQQIDFAVPANMRCGVQTPTA [ETHE1]

A.
[-4.76, 0.708, -2.07, 0.227, -1]

Look up thermal stability score for the entries below, preserving their order.
1. MPKRKVTFQGVGDEEDEDEIIVPKKKLVDPVAGSGGPGSRFKGKHSLDSDEEEDDDDGGSSKYDILASEDVEGQEAATLPSEGGVRITPFNLQEEMEEGHFDADGNYFLNRDAQIRDSWLDNIDWVKIRERPPGQRQASDSEEEDSLGQTSMSAQALLEGLLELLLPRETVAGALRRLGARGGGKGRKGPGQPSSPQRLDRLSGLADQMVARGNLGVYQETRERLAMRLKGLGCQTLGPHNPTPPPSLDMFAEELAEEELETPTPTQRGEAESRGDGLVDVMWEYKWENTGDAELYGPFTSAQMQTWVSEGYFPDGVYCRKLDPPGGQFYNSKRIDFDLYT [CD2BP2]
2. MHPAGLAAAAAGTPRLRKWPSKRRIPVSQPGMADPHQLFDDTSSAQSRGYGAQRAPGGLSYPAASPTPHAAFLADPVSNMAMAYGSSLAAQGKELVDKNIDRFIPITKLKYYFAVDTMYVGRKLGLLFFPYLHQDWEVQYQQDTPVAPRFDVNAPDLYIPAMAFITYVLVAGLALGTQDRFSPDLLGLQASSALAWLTLEVLAILLSLYLVTVNTDLTTIDLVAFLGYKYVGMIGGVLMGLLFGKIGYYLVLGWCCVAIFVFMIRTLRLKILADAAAEGVPVRGARNQLRMYLTMAVAAAQPMLMYWLTFHLVR [YIF1B]
3. MAGRLLGKALAAVSLSLALASVTIRSSRCRGIQAFRNSFSSSWFHLNTNVMSGSNGSKENSHNKARTSPYPGSKVERSQVPNEKVGWLVEWQDYKPVEYTAVSVLAGPRWADPQISESNFSPKFNEKDGHVERKSKNGLYEIENGRPRNPAGRTGLVGRGLLGRWGPNHAADPIITRWKRDSSGNKIMHPVSGKHILQFVAIKRKDCGEWAIPGGMVDPGEKISATLKREFGEEALNSLQKTSAEKREIEEKLHKLFSQDHLVIYKGYVDDPRNTDNAWMETEAVNYHDETGEIMDNLMLEAGDDAGKVKWVDINDKLKLYASHSQFIKLVAEKRDAHWSEDSEADCHAL [NUDT9]

A.
1: 0.517; 2: -0.959; 3: -0.398

* * *

Tested on: HeLa Kyoto
Experiment: melting temperature (median over replicates), in situ; higher = more thermally stable
Conditions: cell cycle stage: G1/S
QUANTITY NAME: melting temperature (°C)
One number for each entry, in °C.

item_sequence="MAAGTAAALAFLSQESRTRAGGVGGLRVPAPVTMDSFFFGCELSGHTRSFTFKVEEEDDAEHVLALTMLCLTEGAKDECNVVEVVARNHDHQEIAVPVANLKLSCQPMLSLDDFQLQPPVTFRLKSGSGPVRITGRHQIVTMSNDVSEEESEEEEEDSDEEEVELCPILPAKKQGGRP [NPM3]" subject_of_test="HeLa Kyoto" quantity_name="melting temperature" quantitative_result=54
item_sequence="MAPLGGAPRLVLLFSGKRKSGKDFVTEALQSRLGADVCAVLRLSGPLKEQYAQEHGLNFQRLLDTSTYKEAFRKDMIRWGEEKRQADPGFFCRKIVEGISQPIWLVSDTRRVSDIQWFREAYGAVTQTVRVVALEQSRQQRGWVFTPGVDDAESECGLDNFGDFDWVIENHGVEQRLEEQLENLIEFIRSRL [PMVK]" subject_of_test="HeLa Kyoto" quantity_name="melting temperature" quantitative_result=46.6
item_sequence="MTCWLRGVTATFGRPAEWPGYLSHLCGRSAAMDLGPMRKSYRGDREAFEETHLTSLDPVKQFAAWFEEAVQCPDIGEANAMCLATCTRDGKPSARMLLLKGFGKDGFRFFTNFESRKGKELDSNPFASLVFYWEPLNRQVRVEGPVKKLPEEEAECYFHSRPKSSQIGAVVSHQSSVIPDREYLRKKNEELEQLYQDQEVPKPKSWGGYVLYPQVMEFWQGQTNRLHDRIVFRRGLPTGDSPLGPMTHRGEEDWLYERLAP [PNPO]" subject_of_test="HeLa Kyoto" quantity_name="melting temperature" quantitative_result=53.5
item_sequence="MEVLAAETTSQQERLQAIAEKRKRQAEIENKRRQLEDERRQLQHLKSKALRERWLLEGTPSSASEGDEDLRRQMQDDEQKTRLLEDSVSRLEKEIEVLERGDSAPATAKENAAAPSPVRAPAPSPAKEERKTEVVMNSQQTPVGTPKDKRVSNTPLRTVDGSPMMKAAMYSVEITVEKDKVTGETRVLSSTTLLPRQPLPLGIKVYEDETKVVHAVDGTAENGIHPLSSSEVDELIHKADEVTLSEAGSTAGAAETRGAVEGAARTTPSRREITGVQAQPGEATSGPPGIQPGQEPPVTMIFMGYQNVEDEAETKKVLGLQDTITAELVVIEDAAEPKEPAPPNGSAAEPPTEAASREENQAGPEATTSDPQDLDMKKHRCKCCSIM [PALM]" subject_of_test="HeLa Kyoto" quantity_name="melting temperature" quantitative_result=55.2
item_sequence="MEKIEEQFANLHIVKCSLGTKEPTYLLGIDTSKTVQAGKENLVAVLCSNGSIRIYDKERLNVLREFSGYPGLLNGVRFANSCDSVYSACTDGTVKCWDARVAREKPVQLFKGYPSNIFISFDINCNDHIICAGTEKVDDDALLVFWDARMNSQNLSTTKDSLGAYSETHSDDVTQVRFHPSNPNMVVSGSSDGLVNVFDINIDNEEDALVTTCNSISSVSCIGWSGKGYKQIYCMTHDEGFYWWDLNHLDTDEPVTRLNIQDVREVVNMKEDALDYLIGGLYHEKTDTLHVIGGTNKGRIHLMNCSMSGLTHVTSLQGGHAATVRSFCWNVQDDSLLTGGEDAQLLLWKPGAIEKTFTKKESMKIASSVHQRVRVHSNDSYKRRKKQ [WDR89]" subject_of_test="HeLa Kyoto" quantity_name="melting temperature" quantitative_result=57.4
item_sequence="MGALVIRGIRNFNLENRAEREISKMKPSVAPRHPSTNSLLREQISLYPEVKGEIARKDEKLLSFLKDVYVDSKDPVSSLQVKAAETCQEPKEFRLPKDHHFDMINIKSIPKGKISIVEALTLLNNHKLFPETWTAEKIMQEYQLEQKDVNSLLKYFVTFEVEIFPPEDKKAIRSK [NDUFAF4]" subject_of_test="HeLa Kyoto" quantity_name="melting temperature" quantitative_result=50.4

Look up melting temperature for the entries below, preserving their order.
1. MISRHLQNNLMSVDPASSQAMELSDVTLIEGVGNEVMVVAGVVVLILALVLAWLSTYVADSGSNQLLGAIVSAGDTSVLHLGHVDHLVAGQGNPEPTELPHPSEGNDEKAEEAGEGRGDSTGEAGAGGGVEPSLEHLLDIQGLPKRQAGAGSSSPEAPLRSEDSTCLPPSPGLITVRLKFLNDTEELAVARPEDTVGALKSKYFPGQESQMKLIYQGRLLQDPARTLRSLNITDNCVIHCHRSPPGSAVPGPSASLAPSATEPPSLGVNVGSLMVPVFVVLLGVVWYFRINYRQFFTAPATVSLVGVTVFFSFLVFGMYGR [TMUB2]
2. MSSSPVKRQRMESALDQLKQFTTVVADTGDFHAIDEYKPQDATTNPSLILAAAQMPAYQELVEEAIAYGRKLGGSQEDQIKNAIDKLFVLFGAEILKKIPGRVSTEVDARLSFDKDAMVARARRLIELYKEAGISKDRILIKLSSTWEGIQAGKELEEQHGIHCNMTLLFSFAQAVACAEAGVTLISPFVGRILDWHVANTDKKSYEPLEDPGVKSVTKIYNYYKKFSYKTIVMGASFRNTGEIKALAGCDFLTISPKLLGELLQDNAKLVPVLSAKAAQASDLEKIHLDEKSFRWLHNEDQMAVEKLSDGIRKFAADAVKLERMLTERMFNAENGK [TALDO1]
3. MAALRVLLSCVRGPLRPPVRCPAWRPFASGANFEYIIAEKRGKNNTVGLIQLNRPKALNALCDGLIDELNQALKTFEEDPAVGAIVLTGGDKAFAAGADIKEMQNLSFQDCYSSKFLKHWDHLTQVKKPVIAAVNGYAFGGGCELAMMCDIIYAGEKAQFAQPEILIGTIPGAGGTQRLTRAVGKSLAMEMVLTGDRISAQDAKQAGLVSKICPVETLVEEAIQCAEKIASNSKIVVAMAKESVNAAFEMTLTEGSKLEKKLFYSTFATDDRKEGMTAFVEKRKANFKDQ [ECHS1]

A.
55
54.4
52.8

Item: MQRVSGLLSWTLSRVLWLSGLSEPGAARQPRIMEEKALEVYDLIRTIRDPEKPNTLEELEVVSESCVEVQEINEEEYLVIIRFTPTVPHCSLATLIGLCLRVKLQRCLPFKHKLEIYISEGTHSTEEDINKQINDKERVAAAMENPNLREIVEQCVLEPD [FAM96A] | melting temperature: 54.9
